- Test system: ragweed
- METHOD NOTES: Test C pre-/postemergence herbicide test
- Assay type: in vivo, Ambrosia elatior
- MEASUREMENT PARAMETERS: Postemergence; 250 g ai/ha; scale 0 to 100 (0 no effect, 100 complete control)
MEASURE NAME: Plant response rating, Ragweed

> print(dat)
                                   compound  quantitative.readout
1  O=C1NCC(c2ccc(Cl)c(F)c2)C1C(=O)Nc1cccc(F)c1F (stereo not shown)                    55
2  Cc1ccccc1NC(=O)C1C(=O)NCC1c1cccc(C(F)(F)F)c1 (racemic)                     5
3  O=C1NCC(c2cccc(OC(F)F)c2)C1C(=O)Nc1cccc(F)c1F (stereo not shown)                    80
4  O=C1NCC(c2ccc(C(F)(F)F)cc2)C1C(=O)Nc1cccc(F)c1F (racemic)                    85
5  O=C1NCC(c2ccc(F)c(F)c2)C1C(=O)Nc1cccc(F)c1F (stereo not shown)                     0
6  O=C1NCC(c2cccc(Br)c2)C1C(=O)Nc1ccc(F)c(F)c1F (stereo not shown)                    60
7  CN1CC(c2ccc(C(F)(F)F)cc2)C(C(=O)Nc2cccc(F)c2F)C1=O (stereo not shown)                    85

###

The entries below are paired with their reported Plant response rating.
- Tested on: field violet
- METHOD NOTES: Test D pre-/postemergence herbicide test
- Type: in vivo, Viola arvensis
- MEASUREMENT PARAMETERS: Preemergence; 250 g ai/ha; Field Violet; scale 0 to 100
MEASURE NAME: Plant response rating

> print(dat)
                                   compound  measurement.target           measure.name  quantitative.readout
1  O=C1NCC(c2ccc(C(F)(F)F)cc2)C1C(=O)Nc1cccc(F)c1F (stereo not shown) [Compound 80]        field violet  Plant response rating                    25
2  O=C1NC[C@H](c2cccc(C(F)(F)F)c2)[C@H]1C(=O)Nc1cccc(F)c1F [Compound 206]        field violet  Plant response rating                    25
3  O=C1NCC(c2ccc(C(F)(F)F)cc2)C1C(=O)Nc1cccc(F)c1F (racemic) [Compound 202]        field violet  Plant response rating                    15
4  O=C1NCC(c2ccc(C(F)(F)F)cc2)C1C(=O)Nc1ccccc1F (stereo not shown) [Compound 231]        field violet  Plant response rating                     0

###

- System: waterhemp
- METHOD NOTES: Test C pre-/postemergence herbicide test
- Assay type: in vivo, Amaranthus rudis
- MEASUREMENT PARAMETERS: Postemergence, 31 g ai/ha; scale 0 to 100 (0 no effect, 100 complete control)
We begin with a simple list: items and their reported Plant response rating, Waterhemp.
MEASURE NAME: Plant response rating, Waterhemp

> print(dat)
                                   compound  measurement.target  quantitative.readout
1  O=C1NC[C@H](c2cccc(C(F)(F)F)c2)[C@H]1C(=O)Nc1cccc(F)c1F [Compound 206]           waterhemp                     0
2  O=C1NCC(c2ccc(C(F)(F)F)cc2)C1C(=O)Nc1cccc(F)c1F (racemic) [Compound 202]           waterhemp                    60
3  O=C1NC[C@H](c2cccc(C(F)(F)F)c2)[C@H]1C(=O)Nc1ccccc1F [Compound 204]           waterhemp                     0
4  O=C1NCC(c2cccc(Br)c2)C1C(=O)Nc1ccc(F)c(F)c1F (stereo not shown) [Compound 310]           waterhemp                     5
